The values you see were collected from patent US20160176924A1.

We begin with a simple list: items and their reported Ki.
# experimental target: HIS-PDZ2 protein (PSD-95 PDZ2, residues 155-249, with tag …) (human, UniProt P78352 155-249)
# measurement protocol: FP competition, fluorescent NR2B probe
Ends that are not written are not given here. * marks the point of attachment. PEG6‑diacid = 4,7,10,13,16,19,22-Heptaoxapentacosane-1,25-dioic acid, O=C(O)CCOCCOCCOCCOCCOCCOCCOCCC(=O)*
recorded metric: Ki

{"binder": "{PEG6‑diacid}-IESDV (also: dimer: two peptides N-terminally joined via PEG6-diacid, Dimeric ligand) [(IESDV)2PEG6 (77)]", "recorded metric": "Ki", "observed measurement": "2 µM"}
{"binder": "IATAV (also: dimer: two peptides joined at N-terminal amines by amide bonds through a PEG12-diacid linker, Dimeric ligand) [(IATAV)2PEG12 (87)]", "recorded metric": "Ki", "observed measurement": "13 µM"}
